# run.description: xn = mol fraction of the nth substance listed
# condition.set: 308.15 K; 100 kPa; Liquid; Concentric cylinders viscometry; x1 = 0.5
± gives the expanded uncertainty stated by the source.
endpoint.label: viscosity
Mention the unit after the number when you answer.

Provide only the value of recorded viscosity for CN1CCC[C@H]1c1cccnc1 [(-)-3-(N-methylpyrrolidino)pyridine] + CCCCO
2.592 ± 0.054 mPa·s

Provide only the value of recorded viscosity for CN1CCC[C@H]1c1cccnc1 [(-)-3-(N-methylpyrrolidino)pyridine] + OCCCO
15.5 ± 0.34 mPa·s

Provide only the value of recorded viscosity for CN1CCC[C@H]1c1cccnc1 [(-)-3-(N-methylpyrrolidino)pyridine] + CC(O)CO
11.73 ± 0.24 mPa·s

Provide only the value of recorded viscosity for CN1CCC[C@H]1c1cccnc1 [(-)-3-(N-methylpyrrolidino)pyridine] + CCC(C)O
2.691 ± 0.056 mPa·s

###

# run.description: xn = mol fraction of the nth substance listed
# condition.set: 293.15 K; 100 kPa; Liquid; Concentric cylinders viscometry; x1 = 0.9
± gives the expanded uncertainty stated by the source.
endpoint.label: viscosity

Below, 3 compounds whose answers are already recorded.
compound="CN1CCC[C@H]1c1cccnc1 [(-)-3-(N-methylpyrrolidino)pyridine] + CCC(C)O" test_value="4.909 ± 0.1 mPa·s"
compound="CN1CCC[C@H]1c1cccnc1 [(-)-3-(N-methylpyrrolidino)pyridine] + CC(O)CO" test_value="6.875 ± 0.14 mPa·s"
compound="CN1CCC[C@H]1c1cccnc1 [(-)-3-(N-methylpyrrolidino)pyridine] + CCCCO" test_value="4.578 ± 0.096 mPa·s"

Proceed to the following item.
Provide only the value of recorded viscosity for CN1CCC[C@H]1c1cccnc1 [(-)-3-(N-methylpyrrolidino)pyridine] + OCCCO
6.894 ± 0.14 mPa·s

###

# run.description: refractive index (Na D-line) (dimensionless); xn = mol fraction of the nth substance listed
# condition.set: 308.15 K; 100 kPa; Liquid; Standard Abbe refractometry; x1 = 0.9
Listed here are molecules together with their documented refractive index.
Number only, no unit.

Below, 3 molecules whose answers are already recorded.
molecule="CN1CCC[C@H]1c1cccnc1 [(-)-3-(N-methylpyrrolidino)pyridine] + CCC(C)O" endpoint_label="refractive index" test_value=1.51184
molecule="CN1CCC[C@H]1c1cccnc1 [(-)-3-(N-methylpyrrolidino)pyridine] + CC(O)CO" endpoint_label="refractive index" test_value=1.5153
molecule="CN1CCC[C@H]1c1cccnc1 [(-)-3-(N-methylpyrrolidino)pyridine] + OCCCO" endpoint_label="refractive index" test_value=1.51623

Provide only the value of recorded refractive index for CN1CCC[C@H]1c1cccnc1 [(-)-3-(N-methylpyrrolidino)pyridine] + CCCCO
1.51238

###

Listed here are molecules together with their documented mass density.
# run.description: xn = mol fraction of the nth substance listed
# condition.set: 293.15 K; 100 kPa; Liquid; Vibrating tube method; x1 = 0.1
± gives the expanded uncertainty stated by the source.

Provide only the value of recorded mass density for CN1CCC[C@H]1c1cccnc1 [(-)-3-(N-methylpyrrolidino)pyridine] + CCC(C)O
841.874 ± 1 kg/m3

Provide only the value of recorded mass density for CN1CCC[C@H]1c1cccnc1 [(-)-3-(N-methylpyrrolidino)pyridine] + CC(O)CO
1035.04 ± 1 kg/m3

Provide only the value of recorded mass density for CN1CCC[C@H]1c1cccnc1 [(-)-3-(N-methylpyrrolidino)pyridine] + OCCCO
1049.36 ± 1.3 kg/m3

Provide only the value of recorded mass density for CN1CCC[C@H]1c1cccnc1 [(-)-3-(N-methylpyrrolidino)pyridine] + CCCCO
845.043 ± 1 kg/m3
